Protocol description: NCI Yeast Anticancer Drug Screen. Data for the rad52 strain (AID 147);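 further: 0% = growth of vehicle-treated control cultures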
Conditions used: S. cerevisiae rad52 mutant growth inhibition; at 33.0 µM; active compounds read high
This is part of a sample that, as a whole, favours compounds with a hit. Of some 79,000 tested, about 15% had one in any assay.
We use 40% as the dividing line for growth inhibition: on or above the line is class 1, below is class 0.

Could you please find out whether `CCCC/C=C/C(CC)(C(=O)OCC)C(=O)OCC` has growth inhibition that meets 40% or exceeds it?
class 0

* * *

Protocol description: NCI Yeast Anticancer Drug Screen. Data for the bub3 strain (AID 167)
Conditions used: S. cerevisiae bub3 mutant strain, at 3.7 µM, active compounds read high
Protocol: Growth inhibition of yeast strains with defined genetic alterations is measured as a screen for potential anti-cancer activity. Selected strains with alterations in DNA damage repair or cell cycle control were exposed to compounds and growth inhibition was measured relative to vehicle treated controls. The strain used in this assay is bub3
The panel holds about 79,000 compounds, 15% with a hit somewhere; the sample as a whole holds those more often.
growth inhibition for assorted compounds
Enter your answer as a number in %; do not include the unit.

Take a look at these entries with their results.
* Cc1cc(S(=O)(=O)/N=C(/NN)NNc2cccc(C(F)(F)F)n2)c(S)cc1Cl | 1
* CO[C@H]1C[C@](C)(O)Cc2cc3c(c(O)c21)C(=O)c1c(O)cc2c(c1C3=O)O[C@@H]1O[C@@]2(C)[C@H](O)[C@@H](N(C)C)[C@@H]1O | -11
* Cn1ccnc1Oc1ccc(Cl)cc1 | -3
* c1ccc(-c2nc3cccnc3s2)cc1 | 0
* Oc1ccc(NCn2c(=S)sc3ccccc32)cc1 | 32
* C[S+](C)C1(c2ccccc2)C(=O)c2ccccc2C1=O | 2
* CCC(C)COC(=O)c1ccc(N=Cc2ccc(C=Nc3ccc(C(=O)OCC(C)CC)cc3)cc2)cc1 (stereo not given) | 3
* CC1(Cl)CC(O)C2(CC1Br)C1(C)OC1C1OC1(Br)C2(C)C (stereo not given) | 1

Value of growth inhibition reported for the compound c1ccc2c(c1)-c1nc3ccccc3cc1C2N1CCOCC1 (stereo not given) is 6

Value of growth inhibition reported for the compound `O=C(NCCCNCCCNC(=O)c1cc(-c2ccccc2)nc2ccccc12)c1cc(-c2ccccc2)nc2ccccc12` is -1

* * *

growth inhibition for assorted compounds
Protocol description: NCI Yeast Anticancer Drug Screen. Data for the bub3 strain (AID 167)
Conditions used: S. cerevisiae bub3 mutant strain, at 50.0 µM (retest, dose inferred, filed as 5.0), active compounds read high
Experimental: Growth inhibition of yeast strains with defined genetic alterations is measured as a screen for potential anti-cancer activity. Selected strains with alterations in DNA damage repair or cell cycle control were exposed to compounds and growth inhibition was measured relative to vehicle treated controls. The strain used in this assay is bub3
Compounds without any hit were thinned out: in the full panel of roughly 79,000, 15% have a hit. Active and inactive are the calls of the source. Cut-off read from the data, not from the text of the source: active = growth inhibition above about 70%; inactive = the rest.

Take a look at these entries with their results.
* CC(C(=O)N1C(=O)N(C(=O)[C@H](C)C(O)c2ccccc2)[C@H](c2ccccc2)[C@H]1c1ccccc1)[C@@H](O)c1ccccc1 (stereo partly specified) | 90% (active)
* O=C(Nc1ccccc1)OCCc1ccc(Cl)c(Cl)c1 | 83% (active)
* CCCCc1cc(O)ccc1O | 3% (inactive)
* N#Cc1ccc(C2NN=CC23C(=O)c2ccccc2OC3c2ccccc2)cc1 (stereo unspecified) | 16% (inactive)
* CCN(CC)CCN1C(=O)c2cccc3cc(OC)cc(c23)C1=O | 15% (inactive)

Now turn to the next compound.
Value of growth inhibition reported for the compound `NC(N)=N/N=C\c1c2ccccc2cc2ccccc12` is 14% (inactive)

From: PubChem BioAssay (NCI)
